- study target: Eukaryotic translation initiation factor 4E (Mus musculus) + Eukaryotic translation initiation factor 4 gamma 1 (Homo sapiens) (UniProt P63073+Q04637)
- Sequence (P63073 whole entry, looked up): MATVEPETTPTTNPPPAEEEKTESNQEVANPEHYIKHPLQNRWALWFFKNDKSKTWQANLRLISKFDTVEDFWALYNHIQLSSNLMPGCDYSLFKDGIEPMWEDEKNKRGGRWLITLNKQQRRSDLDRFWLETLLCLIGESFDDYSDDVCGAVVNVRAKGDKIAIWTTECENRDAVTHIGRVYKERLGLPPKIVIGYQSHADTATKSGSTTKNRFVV
- Sequence (Q04637 whole entry, looked up): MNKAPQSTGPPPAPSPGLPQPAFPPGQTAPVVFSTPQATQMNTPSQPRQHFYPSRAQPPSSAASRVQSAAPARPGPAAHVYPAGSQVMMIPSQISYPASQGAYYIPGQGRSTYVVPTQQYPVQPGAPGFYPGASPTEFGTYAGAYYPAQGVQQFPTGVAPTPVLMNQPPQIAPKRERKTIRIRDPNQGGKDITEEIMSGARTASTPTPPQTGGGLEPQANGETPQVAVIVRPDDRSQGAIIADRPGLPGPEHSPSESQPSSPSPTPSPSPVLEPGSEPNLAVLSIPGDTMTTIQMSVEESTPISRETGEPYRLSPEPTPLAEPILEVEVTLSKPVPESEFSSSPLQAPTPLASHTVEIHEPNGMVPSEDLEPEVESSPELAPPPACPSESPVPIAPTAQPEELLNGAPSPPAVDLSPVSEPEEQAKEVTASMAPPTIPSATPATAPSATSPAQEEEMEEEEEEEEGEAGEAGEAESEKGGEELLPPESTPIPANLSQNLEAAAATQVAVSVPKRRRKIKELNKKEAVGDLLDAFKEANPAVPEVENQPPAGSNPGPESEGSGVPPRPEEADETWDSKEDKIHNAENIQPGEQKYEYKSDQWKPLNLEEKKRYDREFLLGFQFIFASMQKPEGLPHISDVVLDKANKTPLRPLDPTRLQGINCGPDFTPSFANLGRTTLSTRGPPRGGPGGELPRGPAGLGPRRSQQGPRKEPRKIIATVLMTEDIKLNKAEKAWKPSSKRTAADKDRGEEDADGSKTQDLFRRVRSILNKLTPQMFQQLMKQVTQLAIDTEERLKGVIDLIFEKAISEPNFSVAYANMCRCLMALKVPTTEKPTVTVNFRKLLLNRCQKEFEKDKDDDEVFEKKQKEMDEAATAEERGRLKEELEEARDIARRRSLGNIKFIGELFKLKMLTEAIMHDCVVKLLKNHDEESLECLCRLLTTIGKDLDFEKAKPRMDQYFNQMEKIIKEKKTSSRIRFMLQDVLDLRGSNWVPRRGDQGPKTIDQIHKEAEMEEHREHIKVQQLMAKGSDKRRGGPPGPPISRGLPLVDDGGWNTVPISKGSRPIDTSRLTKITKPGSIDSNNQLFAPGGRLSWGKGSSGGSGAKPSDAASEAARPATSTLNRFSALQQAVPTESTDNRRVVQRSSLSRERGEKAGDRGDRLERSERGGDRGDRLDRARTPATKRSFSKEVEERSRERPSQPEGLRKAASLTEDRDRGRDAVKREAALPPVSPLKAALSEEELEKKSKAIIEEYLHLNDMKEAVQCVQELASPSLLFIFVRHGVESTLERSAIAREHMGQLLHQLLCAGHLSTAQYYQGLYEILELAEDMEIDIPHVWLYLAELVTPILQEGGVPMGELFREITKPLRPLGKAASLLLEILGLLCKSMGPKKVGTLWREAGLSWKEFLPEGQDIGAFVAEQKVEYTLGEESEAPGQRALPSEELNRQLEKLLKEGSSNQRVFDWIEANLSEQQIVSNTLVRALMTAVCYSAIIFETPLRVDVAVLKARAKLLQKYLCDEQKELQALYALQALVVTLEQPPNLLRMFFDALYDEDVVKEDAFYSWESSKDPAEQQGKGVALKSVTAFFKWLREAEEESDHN
- test protocol: eIF4E–eIF4G protein interaction inhibitors, dose response, biochemical, TR-FRET (AID 855)
- experimental conditions: eIF4E/eIF4G binding, TR-FRET 665/620 nm; at 64 µM (top of the series)
Calls of active or inactive are those of the source. No rule for the calls is given here.
parameter: percent of control, lower = inhibition

{"columns": ["molecule", "parameter", "observed value"],
 "data": [
  ["O=C(OCCN1C(=O)c2cccc3c(N4CCOCC4)ccc(c23)C1=O)c1cc(Cl)cc(Cl)c1", "percent of control, lower = inhibition", "inactive"],
  ["O=C(CSCC(=O)Nc1ccc2ccccc2c1)NCc1ccccc1", "percent of control, lower = inhibition", "inactive"],
  ["COc1ccc(C(=O)Nc2ccc3oc(Cc4ccc(Cl)cc4)nc3c2)cc1OC", "percent of control, lower = inhibition", "inactive"],
  ["C=CCNC(=O)COc1cc(C)ccc1C", "percent of control, lower = inhibition", "inactive"],
  ["CCOC(=O)C(C)n1ncn2cccc2c1=O (centres undefined)", "percent of control, lower = inhibition", "inactive"],
  ["CCOC(=O)c1ccccc1NC(=O)Cn1cnc2c(nnn2-c2ccc(C)cc2)c1=O", "percent of control, lower = inhibition", "inactive"],
  ["Cc1[nH]n(-c2ccccc2)c(=S)c1C=Nc1cccc([N+](=O)[O-])c1", "percent of control, lower = inhibition", "inactive"],
  ["O=C(Nc1nnc(C23CC4CC(CC(C4)C2)C3)s1)c1ccc(N2C(=O)CCC2=O)cc1", "percent of control, lower = inhibition", "inactive"],
  ["Cc1cc(NC(=O)CSc2ccccc2)no1", "percent of control, lower = inhibition", "inactive"],
  ["O=C(N/N=C/c1ccccc1O)c1cc(=O)[nH]c2ccccc12", "percent of control, lower = inhibition", "inactive"],
  ["O=C(CCn1[nH]c(=O)c2ccccc2c1=O)NCCO", "percent of control, lower = inhibition", "inactive"],
  ["COc1c(Cl)cc(-c2noc(C)c2C(=O)NC(C)C)cc1Cl", "percent of control, lower = inhibition", "inactive"],
  ["Cc1nn(CCC#N)c2c1P(=S)(N1CCCC1)OC(c1ccc(F)cc1)=N2 (centres undefined)", "percent of control, lower = inhibition", "inactive"],
  ["CCOC(=O)c1c(NC(=O)c2cc(-c3ccc(O)cc3)on2)sc(C(C)=O)c1C", "percent of control, lower = inhibition", "inactive"],
  ["CCn1c(C2CC(=O)N(Cc3ccccc3)C2)nc2ccccc21 (centres undefined)", "percent of control, lower = inhibition", "inactive"],
  ["COc1cc(CC(=O)Nc2ccc3c(c2)CCC3)cc(OC)c1OC", "percent of control, lower = inhibition", "inactive"],
  ["CCC(C(=O)NC(C)CCc1ccco1)n1nc(C)n2c(cc3occc32)c1=O (centres undefined)", "percent of control, lower = inhibition", "inactive"],
  ["CC(=O)Nc1ccc(S(=O)(=O)NNC(=O)COc2cccc(C)c2)cc1", "percent of control, lower = inhibition", "inactive"],
  ["CCNC(=O)c1ccc(CSc2ccc(Cl)cc2)cc1", "percent of control, lower = inhibition", "inactive"],
  ["CCOc1ccc(-c2nc(=S)[nH][nH]2)cc1", "percent of control, lower = inhibition", "inactive"],
  ["CCN=C(N/N=C/c1ccc([N+](=O)[O-])cc1)SC", "percent of control, lower = inhibition", "inactive"],
  ["CCn1c2ccccc2c2nc3cc(S(=O)(=O)N4CCOCC4)ccc3nc21", "percent of control, lower = inhibition", "inactive"],
  ["CC(=O)Nc1ccnc(-c2cccnc2)n1", "percent of control, lower = inhibition", "inactive"],
  ["O=C(NC1CCCC1)c1cnc2n(c1=O)CCS2", "percent of control, lower = inhibition", "inactive"],
  ["CCN(CC)S(=O)(=O)c1ccc(Cl)c(C(=O)Oc2cccnc2)c1", "percent of control, lower = inhibition", "inactive"],
  ["N#C/C(=C\\c1sc(N2CCOCC2)nc1-c1ccccc1)C(=O)Nc1cccc2ccccc12", "percent of control, lower = inhibition", "inactive"],
  ["Cc1noc(C)c1CSc1nc2cc(S(=O)(=O)N3CCOCC3)ccc2o1", "percent of control, lower = inhibition", "inactive"],
  ["CN1CCCN(Cc2ccccc2C(F)(F)F)CC1", "percent of control, lower = inhibition", "inactive"],
  ["O=C(/N=C1\\NC(=O)C(F)(C(F)(F)F)S1)NC1CCCCC1 (centres undefined)", "percent of control, lower = inhibition", "inactive"]
]}
